# tested.target: mouse NMUR2 (Mus musculus, UniProt Q8BZ39)
# Sequence (Q8BZ39 whole entry): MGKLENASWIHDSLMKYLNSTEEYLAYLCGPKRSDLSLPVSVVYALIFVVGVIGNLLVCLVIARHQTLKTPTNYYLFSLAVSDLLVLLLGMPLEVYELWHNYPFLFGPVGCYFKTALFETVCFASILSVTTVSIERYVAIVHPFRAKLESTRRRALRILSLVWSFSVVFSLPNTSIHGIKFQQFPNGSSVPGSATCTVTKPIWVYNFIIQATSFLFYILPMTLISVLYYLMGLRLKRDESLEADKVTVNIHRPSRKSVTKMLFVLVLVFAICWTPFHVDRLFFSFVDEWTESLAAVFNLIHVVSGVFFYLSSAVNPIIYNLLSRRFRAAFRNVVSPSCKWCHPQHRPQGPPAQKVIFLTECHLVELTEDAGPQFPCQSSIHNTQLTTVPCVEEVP
# test.name: FLIPR calcium mobilization assay, mouse NMUR2
# Type: cell-based
# Set-up: expressed in transfected cells; host or cells: FLP-In CHO or HEK-293 FLP-In cells (pcDNA5)
# assay.setup: FLIPR, mouse NMUR2
*: point of attachment. Palmitoyl = CCCCCCCCCCCCCCCC(=O)*
reported.property: EC50 (nM)
Give the number; nM is assumed, so skip it.

## Task What value of EC50 has been recorded for this entry: H-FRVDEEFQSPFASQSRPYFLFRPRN-NH2 [NMU4]
## Result 1.2

## Task # iterate: Ac-C2FQSPFASQSRGYFLFRPRN-CONH2 ({Ac-C(PEG 40 kDa)}-FQSPFASQSRGYFLFRPRN-NH2; not fully specified; printed as Ac-C2FQSPFASQSRGYFLFRPRN-CONH2) [NMU20, C2 = Cys(PEG)240 kDa]
## Result 14.8

## Task Record: Ac-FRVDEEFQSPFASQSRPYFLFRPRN-NH2 [NMU5]
## Result 1

## Task Moving on to Pam-C2FRVDEEFQSPFASQSRGYFLFRPRN-CONH2 ({Palmitoyl-C(PEG 40 kDa)}-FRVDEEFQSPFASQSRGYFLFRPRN-NH2) [NMU25, Pam = palmitoyl; C2 = Cys(PEG)240 kDa]
## Result 18.8

## Task Next substance up: Ac-C4-C4-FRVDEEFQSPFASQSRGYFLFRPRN-CONH2 ({Ac-C(PEG 20 kDa)-C(PEG 20 kDa)}-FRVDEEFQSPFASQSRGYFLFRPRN-NH2) [NMU23, C4 = Cys(PEG)20 kDa]
## Result 21.3

## Task For Ac-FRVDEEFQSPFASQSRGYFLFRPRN-NH2 [NMU2] then?
## Result 1.2

## Task Next substance up: Ac-C2FRVDEEFQSPFASQSRGYFLFRPRN-CONH2 [NMU9] ({Ac-C(PEG 40 kDa)}-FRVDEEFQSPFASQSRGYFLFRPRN-NH2) [C2 = Cys(PEG)240 kDa from Nektar (mPEG2-MAL-40 k)]
## Result 19

###

For each of the molecules below, state its % Activity.
# tested.target: rat NMUR1-ATG (Rattus norvegicus)
# Sequence (Q9JJI5 1-425): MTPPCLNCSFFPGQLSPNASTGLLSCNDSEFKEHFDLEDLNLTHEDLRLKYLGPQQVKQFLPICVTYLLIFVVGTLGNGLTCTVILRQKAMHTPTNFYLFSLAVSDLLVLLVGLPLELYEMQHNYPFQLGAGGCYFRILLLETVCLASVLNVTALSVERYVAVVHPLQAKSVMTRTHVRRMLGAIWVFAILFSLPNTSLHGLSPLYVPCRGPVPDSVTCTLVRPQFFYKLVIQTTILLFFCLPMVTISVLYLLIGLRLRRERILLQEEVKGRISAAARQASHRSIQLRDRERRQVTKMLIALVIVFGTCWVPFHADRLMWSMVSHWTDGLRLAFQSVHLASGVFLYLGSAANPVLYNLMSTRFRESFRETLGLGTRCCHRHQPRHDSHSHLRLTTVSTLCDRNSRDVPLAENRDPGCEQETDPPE
# test.name: FLIPR calcium mobilization assay, rat NMUR1-ATG
# Assay type: cell-based
# Parameters: expressed in transfected cells; host or cells: FLP-In CHO or HEK-293 FLP-In cells (pcDNA5)
# assay.setup: maximum response at 1 μM compared to hNMU-25; rat NMUR1-ATG
# Experimental: […] After a 90 minute incubation at room-temperature, cell plates were loaded onto a FLIPR (Molecular Devices) to monitor cellular fluorescence (excitation=488 nm; emission=540 nm) before and after compound/peptide addition. […] The response after peptide addition was taken as the maximum fluorescence units minus the fluorescence immediately prior to stimulation for each well. EC50 values were calculated using GraphPad Prism (San Diego, Calif.) software. […]
Starred links: 1 amine or outer side, 2 acyl side, 3 side chain; linkers in the order of their positions; H or OH if unused. Residues, ends and D or L forms follow the SMILES beside them. *: point of attachment. X1 = CC(C)CCC[C@@H](C)[C@H]1CC[C@H]2[C@@H]3CC=C4C[C@@H](OC(=O)C*)CC[C@]4(C)[C@H]3CC[C@]12C; X2 = CCN1C(=O)CC(SC[C@H](NC(C)=O)C(=O)NCCCOCCOCCOCCCN*)C1=O; Succinimide(1-Et,3-yl) = CCN1C(=O)CC(*)C1=O; Suc = O=C(CCC(=O)[*:2])[*:1]
Response body: numeric value in %, unit text excluded.

## Task Data request, read-out % Activity, for CC(=O)N[C@@H](CSCC(=O)O[C@H]1CC[C@@]2(C)C(=CC[C@H]3[C@@H]4CC[C@H]([C@H](C)CCCC(C)C)[C@@]4(C)CC[C@@H]32)C1)C(=O)NCC(=O)N[C@@H](Cc1ccc(O)cc1)C(=O)N[C@@H](Cc1ccccc1)C(=O)N[C@@H](CC(C)C)C(=O)N[C@@H](Cc1ccccc1)C(=O)N[C@@H](CCCNC(=N)N)C(=O)N1CCC[C@H]1C(=O)N[C@@H](CCCNC(=N)N)C(=O)N[C@@H](CC(N)=O)C(N)=O [NMU11] (Ac-C(X1)GYFLFRPRN-NH2)
## Result 50.9

## Task Lookup CCN1C(=O)CC(SC[C@H](NC(C)=O)C(=O)NCCCOCCOCCOCCCNC(=O)CCC(=O)N[C@@H](Cc2ccccc2)C(=O)N[C@@H](CC(C)C)C(=O)N[C@@H](Cc2ccccc2)C(=O)N[C@@H](CCCNC(=N)N)C(=O)N2CCC[C@H]2C(=O)N[C@@H](CCCNC(=N)N)C(=O)N[C@@H](CC(N)=O)C(N)=O)C1=O (stereo partly shown) [NMU15, Ac-C1-Ttds-FLFRPRN-CONH2] ({X2-Suc}-FLFRPRN-NH2)
## Result 100

## Task Follow-up item: CCN1C(=O)CC(SC[C@H](NC(C)=O)C(=O)N[C@@H](C)C(=O)N[C@@H](CO)C(=O)N[C@@H](CCC(N)=O)C(=O)N[C@@H](CO)C(=O)N[C@@H](CCCNC(=N)N)C(=O)NCC(=O)N[C@@H](Cc2ccc(O)cc2)C(=O)N[C@@H](Cc2ccccc2)C(=O)N[C@@H](CC(C)C)C(=O)N[C@@H](Cc2ccccc2)C(=O)N[C@@H](CCCNC(=N)N)C(=O)N2CCC[C@H]2C(=O)N[C@@H](CCCNC(=N)N)C(=O)N[C@@H](CC(N)=O)C(N)=O)C1=O (stereo partly shown) [NMU17] (Ac-C(Succinimide(1-Et,3-yl))ASQSRGYFLFRPRN-NH2)
## Result 100

## Task Lookup CCN1C(=O)CC(SC[C@H](NC(C)=O)C(=O)NCC(=O)N[C@@H](Cc2ccc(O)cc2)C(=O)N[C@@H](Cc2ccccc2)C(=O)N[C@@H](CC(C)C)C(=O)N[C@@H](Cc2ccccc2)C(=O)N[C@@H](CCCNC(=N)N)C(=O)N2CCC[C@H]2C(=O)N[C@@H](CCCNC(=N)N)C(=O)N[C@@H](CC(N)=O)C(N)=O)C1=O (stereo partly shown) [NMU6] (Ac-C(Succinimide(1-Et,3-yl))GYFLFRPRN-NH2)
## Result 100

###

# tested.target: hNMUR2 (Homo sapiens, UniProt Q9GZQ4)
# Sequence (Q9GZQ4 whole entry): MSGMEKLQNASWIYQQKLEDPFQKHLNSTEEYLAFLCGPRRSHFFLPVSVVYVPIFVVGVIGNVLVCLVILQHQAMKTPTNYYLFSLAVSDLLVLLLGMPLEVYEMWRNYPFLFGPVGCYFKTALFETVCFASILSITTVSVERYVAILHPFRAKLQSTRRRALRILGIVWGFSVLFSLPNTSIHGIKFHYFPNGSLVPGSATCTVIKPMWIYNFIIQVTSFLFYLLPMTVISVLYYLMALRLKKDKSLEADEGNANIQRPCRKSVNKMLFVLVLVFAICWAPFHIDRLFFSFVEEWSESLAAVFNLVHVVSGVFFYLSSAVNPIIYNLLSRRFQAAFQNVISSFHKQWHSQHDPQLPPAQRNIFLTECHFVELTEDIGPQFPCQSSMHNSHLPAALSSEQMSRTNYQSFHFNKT
# test.name: 125I-hNMU-25 binding assay, human NMUR2 membranes
# Set-up: expressed in transfected cells; host or cells: HEK-293 FLP-In cells (pcDNA5); HEK-293/aeq17 lines (pcDNA3.1) were also made; concentration or dose not given beside the values
# assay.setup: Table 9, HEK-hR2, binding
No end group written: not given here.
reported.property: % Activity (%)
Quick reminder: number only, in %, skip the unit.

## Task Entry H-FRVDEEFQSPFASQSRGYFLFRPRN-NH2 [hNMU-25, reference compound] has what % Activity?
## Result 100

## Task Now the substance FALFRPRN-NH2 [Agonist N]
## Result 100

## Task Query WALFRARN-NH2 [Agonist M] next
## Result 71

## Task Now try H-FWLFRARN-NH2 [Agonist L] .
## Result 100
